- STUDY SYSTEM: T1, mouse ApoE (mouse, UniProt P08226 19-311, limits assumed)
- T1 construct: also called msApoE; ms ApoE
- T1 sequence (looked up): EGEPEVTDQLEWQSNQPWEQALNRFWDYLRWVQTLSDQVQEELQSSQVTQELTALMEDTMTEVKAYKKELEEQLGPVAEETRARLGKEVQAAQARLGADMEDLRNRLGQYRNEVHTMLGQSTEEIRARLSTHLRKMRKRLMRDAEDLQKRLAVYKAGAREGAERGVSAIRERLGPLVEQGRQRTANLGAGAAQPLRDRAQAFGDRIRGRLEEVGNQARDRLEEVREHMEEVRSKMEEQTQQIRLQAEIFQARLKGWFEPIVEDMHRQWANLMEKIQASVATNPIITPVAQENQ
- ASSAY SUMMARY: pH affinity ELISA, coated mouse ApoE
binders and their reported Ratio pH 7.4/6.0 (EC50)
I only need the number, in ratio, no unit after it.

# example entries with known answers
BINDER: BAP191.01-CPE-LC-P095D (antibody, V domains shown) VH: QIQLVQSGPELKKPGETVKISCKASGYTFTTAGMQWVQKMPGKGFKWIGWINTHSGEPKYAEDFKGRFAFSLETSASTAYLQISNLKNEDTATYFCARMGGYAMDYWGQGTSVTVSS VL: DIKLTQSPSSMYASLGERVTITCKASEDINSYLSWFQQKPGKSPKTLIYRANRLVDGVPSRFSGSGSGQDYSLTISSLEYEDMGIYYCLQYDEFDLTFGAGTKLELT
TEST RESULT: 1.67
//
BINDER: BAP191.01-CPE-HC-R098E (antibody, V domains shown) VH: QIQLVQSGPELKKPGETVKISCKASGYTFTTAGMQWVQKMPGKGFKWIGWINTHSGEPKYAEDFKGRFAFSLETSASTAYLQISNLKNEDTATYFCAEMGGYAMDYWGQGTSVTVSS VL: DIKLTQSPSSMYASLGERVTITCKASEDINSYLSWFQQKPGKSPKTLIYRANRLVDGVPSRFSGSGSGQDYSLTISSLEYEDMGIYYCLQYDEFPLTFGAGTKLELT
TEST RESULT: 2.53
//
BINDER: Anti-ApoE wildtype antibody BAP191.01-WT (antibody, V domains shown, also called benchmark; parent) VH: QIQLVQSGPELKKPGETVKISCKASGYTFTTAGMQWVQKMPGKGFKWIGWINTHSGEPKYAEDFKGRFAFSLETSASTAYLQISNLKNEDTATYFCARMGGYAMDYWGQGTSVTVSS VL: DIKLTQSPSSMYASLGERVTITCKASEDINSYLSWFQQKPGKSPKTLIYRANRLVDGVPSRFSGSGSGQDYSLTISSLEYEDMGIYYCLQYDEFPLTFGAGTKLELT
TEST RESULT: 0.96
//
BINDER: BAP191.01-CPE-HC-M104E (antibody, V domains shown) VH: QIQLVQSGPELKKPGETVKISCKASGYTFTTAGMQWVQKMPGKGFKWIGWINTHSGEPKYAEDFKGRFAFSLETSASTAYLQISNLKNEDTATYFCARMGGYAEDYWGQGTSVTVSS VL: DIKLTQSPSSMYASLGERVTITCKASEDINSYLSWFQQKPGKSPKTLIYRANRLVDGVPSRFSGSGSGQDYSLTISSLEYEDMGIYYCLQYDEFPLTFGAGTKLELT
TEST RESULT: 2.25
//
BINDER: BAP191.01-CPE-HC-M099E (antibody, V domains shown) VH: QIQLVQSGPELKKPGETVKISCKASGYTFTTAGMQWVQKMPGKGFKWIGWINTHSGEPKYAEDFKGRFAFSLETSASTAYLQISNLKNEDTATYFCAREGGYAMDYWGQGTSVTVSS VL: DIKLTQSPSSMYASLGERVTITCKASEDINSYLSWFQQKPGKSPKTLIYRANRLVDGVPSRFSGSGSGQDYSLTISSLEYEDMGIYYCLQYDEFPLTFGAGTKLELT
TEST RESULT: 2.75
//
BINDER: BAP191.01-CPE-HC-I051D (antibody, V domains shown, also called BAP191.01-CPE-HC-1051D) VH: QIQLVQSGPELKKPGETVKISCKASGYTFTTAGMQWVQKMPGKGFKWIGWDNTHSGEPKYAEDFKGRFAFSLETSASTAYLQISNLKNEDTATYFCARMGGYAMDYWGQGTSVTVSS VL: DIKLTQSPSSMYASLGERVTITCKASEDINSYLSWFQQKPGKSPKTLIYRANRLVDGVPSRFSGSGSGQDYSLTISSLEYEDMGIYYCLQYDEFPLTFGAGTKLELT
TEST RESULT: 3.76

Request: Param item = BAP191-01-CPE-HC-M034D (antibody, V domains shown) VH: QIQLVQSGPELKKPGETVKISCKASGYTFTTAGDQWVQKMPGKGFKWIGWINTHSGEPKYAEDFKGRFAFSLETSASTAYLQISNLKNEDTATYFCARMGGYAMDYWGQGTSVTVSS VL: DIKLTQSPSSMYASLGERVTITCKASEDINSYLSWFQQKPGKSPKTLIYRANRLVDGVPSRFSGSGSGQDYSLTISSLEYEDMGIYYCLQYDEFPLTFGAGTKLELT ; retrieve measured Ratio pH 7.4/6.0 (EC50).
Response: 3.71
